# system-name: the molecule itself
# test-protocol: SEC-MALLS; Superdex 200 10/300 GL, buffer A (25 mM Tris-HCl pH 7.5, 500 mM NaCl); 25 µM protein without urea, 50–75 µM with urea up to 1 M
Please respond with reported stoichiometry N for every item in the list.
One number for each entry.

Below, each entry is followed by its recorded stoichiometry N result.
| protein | stoichiometry N |
| --- | --- |
| Sis1_Δ_(121–257) (natural protein, yeast, UniProt P25294 1-352, looked up, source: E. coli BL21(DE3), purified by two chromatography steps) MVKETKLYDLLGVSPSANEQELKKGYRKAALKYHPDKPTGDTEKFKEISEAFEILNDPQKREIYDQYGLEAARSGGPSFGPGGPGGAGGAGGFPGGAGGFSGGHAFSNEDAFNIFSQFFGHPNFKRDGDDLIYTLPLSFKESLLGFSKTIQTIDGRTLPLSRVQPVQPSQTSTYPGQGMPTPKNPSQRGNLIVKYKVDYPISLNDAQKRAIDENF | 2 |
| SYS (Sis1_(1–121)-Ydj1_(101–255)-Sis1_(258–352)) (other, yeast, UniProt P25294 1-121, looked up, Ydj1, yeast, residues 101–255 (central region); Sis1, yeast, residues 258–352 (CTDII and dimerization region); also called chimera SYS; SYS chimera; source: E. coli BL21(DE3), purified by two chromatography steps) MVKETKLYDLLGVSPSANEQELKKGYRKAALKYHPDKPTGDTEKFKEISEAFEILNDPQKREIYDQYGLEAARSGGPSFGPGGPGGAGGAGGFPGGAGGFSGGHAFSNEDAFNIFSQFFGGAGGAQRPRGPQRGKDIKHEISASLEELYKGRTAKLALNKQILCKECEGRGGKKGAVKKCTSCNGQGIKFVTRQMGPMIQRFQTECDVCHGTGDIIDPKDRCKSCNGKKVENERKILEVHVEPGMKDGQRIVFKGEADQAPDVIPGDVVFIVSERPHPNFKRDGDDLIYTLPLSFKESLLGFSKTIQTIDGRTLPLSRVQPVQPSQTSTYPGQGMPTPKNPSQRGNLIVKYKVDYPISLNDAQKRAIDENF | 2 |

Quickly give me recorded stoichiometry N for Sis1_Δ_(124–174) (natural protein, yeast, UniProt P25294 1-352, looked up, source: E. coli BL21(DE3), purified by two chromatography steps) MVKETKLYDLLGVSPSANEQELKKGYRKAALKYHPDKPTGDTEKFKEISEAFEILNDPQKREIYDQYGLEAARSGGPSFGPGGPGGAGGAGGFPGGAGGFSGGHAFSNEDAFNIFSQFFGGSSTYPEEETVQVNLPVSLEDLFVGKKKSFKIGRKGPHGASEKTQIDIQLKPGWKAGTKITYKNQGDYNPQTGRRKTLQFVIQEKSHPNFKRDGDDLIYTLPLSFKESLLGFSKTIQTIDGRTLPLSRVQPVQPSQTSTYPGQGMPTPKNPSQRGNLIVKYKVDYPISLNDAQKRAIDENF
2
